- Tested on: DeltatarO mutant
- protocol_text: S. aureus survival, RN4220 and DeltatarO strains – OD600, teichoic acid synthesis inhibitors, primary screen (AID 463173)
- condition_description: S. aureus RN4220 wild type/DeltatarO growth, OD600, 18 h, hits give low values, screened at 18.75 µg/mL (by protocol)
In all, about 52,000 compounds went through this assay and about 4,300 (8.3%) were called active. Many of the other results were omitted from the sample, so actives are more common in it than they were.
metric_name: survival (%)

1. Cc1ccc(OCC(=O)Nc2nc(-c3ccc(Br)cc3)ns2)cc1C	110
2. CC(CNC(=O)CCCn1c(=O)c2cccn2c2ccccc21)c1ccccc1 (stereo not drawn)	47
3. COc1ccc(-c2cc(C(N)=O)on2)c(OC)c1	99

* * *

- Test system: DeltatarO mutant
- protocol_text: S. aureus survival, RN4220 and DeltatarO strains – OD600, teichoic acid synthesis inhibitors, primary screen (AID 463173)
- condition_description: S. aureus RN4220 wild type/DeltatarO growth, OD600, 18 h, screened at 18.75 µg/mL (by protocol)
About 4,300 (8.3%) of roughly 52,000 compounds were called active. No stated cut-off is given here; in the data, active means survival mostly below about 52% (no sharp cut-off); inactive means mostly above about 56%. Many of the other results were omitted from the sample, so actives are more common in it than they were.
Classes used: active, inactive

1) COc1ccc(-c2cc3ccc(O)c(CN4CCCC(C)C4)c3oc2=O)cc1 (configuration not stated)	inactive
2) COC(=O)CN1C(=O)C(C)(C)c2cc(S(=O)(=O)Nc3ccc(C(C)C)cc3)ccc21	inactive
3) Cn1c(=O)c2ccccc2n2c(CCC(=O)N3CCN(c4cccc(Cl)c4)CC3)nnc12	inactive
4) CN(C1CCCCC1)S(=O)(=O)c1ccc2c(c1)c(=O)c(C(=O)NCCc1ccccc1)cn2C	inactive
5) COc1ccc(S(=O)(=O)c2nnn(-c3cccc(Cl)c3)c2N)cc1	inactive
6) CCOc1ccc(CCNC(=O)CCSCc2cccc(Cl)c2)cc1OCC	inactive
7) COC(=O)c1ccc(C(=O)OC)c(NC(=O)c2cnn3c(C(F)F)cc(-c4ccc(C)cc4)nc23)c1	inactive
8) Cc1ccc(N2CCN(c3nc4ccccc4n4nnnc34)CC2)c(C)c1	inactive
9) CCN1C(=C(C#N)C#N)C=Cc2cc(C)ccc21	inactive
10) COc1cccc(Cn2c(=O)n(CCc3ccccc3)c(=O)c3c2c2cc(OC)ccc2n3C)c1	inactive
11) CC(C)c1ccc(NC(=O)c2cnn3c(C(F)F)cc(-c4ccccc4)nc23)cc1	inactive
12) CCOc1ccc(CNC(=O)CN2C(=O)CCn3nc(-c4cn(C)c5ccccc45)cc32)cc1OC	active
13) CCN(CC)c1ccc(NC(=O)c2cnn3c(C(F)F)cc(-c4ccccc4)nc23)cc1	active
14) CCCCN(CCCC)CCNC(=O)CN1C(=O)CSc2ccc(S(=O)(=O)N3CCOCC3)cc21	inactive
15) CNS(=O)(=O)c1ccc(NC(=O)c2cnn3c(C(F)F)cc(-c4ccccc4)nc23)cc1	inactive
16) O=C(Nc1c(C(=O)Nc2cccc(F)c2)oc2ccccc12)c1cc2ccccc2o1	active
17) CCOc1ccc(S(=O)(=O)N(CC(=O)Nc2ccc3c(c2)OCO3)c2ccc(C)cc2)cc1	inactive

* * *

- System: DeltatarO mutant
- protocol_text: S. aureus survival, RN4220 and DeltatarO strains – OD600, teichoic acid synthesis inhibitors, primary screen (AID 463173)
- condition_description: S. aureus RN4220 wild type/DeltatarO growth, OD600, 18 h, hits give low values, screened at 18.75 µg/mL (by protocol)
The campaign covered roughly 52,000 compounds. About 4,300 (8.3%) were called active. Only a selection was taken, and actives are over-represented in it overall.
metric_name: survival (%)

1. CCN(CC)S(=O)(=O)c1nnc(NC(=O)COc2cccc(C)c2)s1	94
2. CC(C)c1ccc(NS(=O)(=O)c2ccc3nc(-c4ccccc4)[nH]c3c2)cc1	67
3. COc1cc(NS(=O)(=O)c2ccc3c(c2)CC(=O)N3)cc(OC)c1OC	74
4. Cc1cccc2sc(N(Cc3cccnc3)C(=O)CCS(=O)(=O)c3ccccc3)nc12	89
5. O=C(Nc1ccc(Cl)c(Cl)c1)c1cc(S(=O)(=O)N2CCN(c3cccc(Cl)c3)CC2)ccc1F	68
6. CCOc1ccc(NC(=O)CSc2nc3c(oc4ccccc43)c(=O)n2CCOC)cc1	74
7. O=C(COc1ccc(Cl)cc1)Nc1nnc(S(=O)(=O)N2CCCCCC2)s1	55
8. C=CCNCc1cc2cc(OCC)ccc2[nH]c1=O	97
9. Cc1cccc(OCC(=O)Nc2nnc(S(=O)(=O)N3CCCCCC3)s2)c1	48
10. Cc1ccc(NS(=O)(=O)c2ccc3c(c2)N(C)C(=O)CC(=O)N3C)cc1Cl	72
11. CCOC(=O)c1c(S(=O)(=O)NCC(=O)Nc2ccc(C)c(Cl)c2)c(C)n(C)c1C	61
12. COc1cccc(-n2c(SCC(=O)Nc3cccc(Cl)c3)nc3c(oc4ccccc43)c2=O)c1	85
13. Cc1ccc(C)c(N2CCN(C(=O)c3c(C)oc4nc(C)nc(N5CCOCC5)c34)CC2)c1	115
14. Cc1cc(NS(=O)(=O)c2ccc3nc(-c4ccccc4)[nH]c3c2)ccc1Br	-2
15. COc1ccc(OCC(=O)Nc2nnc(S(=O)(=O)N3CCCCCC3)s2)cc1	76
16. CC(Oc1ccccc1)C(=O)Nc1nnc(S(=O)(=O)N2CCCCCC2)s1 (stereo not drawn)	50
17. Cc1ccc(NS(=O)(=O)c2ccc3nc(-c4ccccc4)[nH]c3c2)c(Br)c1	79
18. O=C(Cn1ncc2c3ccccc3n(Cc3cccc(Cl)c3)c2c1=O)NCCC1=CCCCC1	90
19. CC(=O)c1ccc(C(=O)N(Cc2cccnc2)c2nc3c(C)c(C)ccc3s2)cc1	-1
20. Cc1oc2ncnc(N3CCCCC3)c2c1C(=O)N1CCN(c2ccc(Cl)cc2)CC1	60
21. Cc1ccc2c(c1)N(C(=O)CCC(=O)Nc1ccccc1Cl)CC(C)O2 (stereo not drawn)	105
22. CN(c1ccccc1)S(=O)(=O)c1nnc(NC(=O)COc2ccccc2)s1	56
23. CCCCNc1nc(Oc2ccc(=O)n(C)n2)nc(N2CCOCC2)n1	81
24. CCc1c(C)c2ccc(O)c(CN3CCN(c4cc(Cl)ccc4C)CC3)c2oc1=O	54
25. Cc1ccc(Cl)cc1N1CCN(C(=O)c2c(C)oc3ncnc(N4CCOCC4)c23)CC1	89
26. Cc1cc(Nc2cccc(Cl)c2)nc2ccc(NC(=O)c3cccc(N(C)C)c3)cc12	106
27. COc1ccc(CCC(=O)NCc2ccc3c(c2)CCN3C(=O)c2ccc(C)cc2)cc1	75
28. Cc1ccc(NS(=O)(=O)c2ccc3nc(-c4ccccc4)[nH]c3c2)c(Cl)c1	76

* * *

- System: DeltatarO mutant
- protocol_text: S. aureus survival, RN4220 and DeltatarO strains – OD600, teichoic acid synthesis inhibitors, primary screen (AID 463173)
- condition_description: S. aureus RN4220 wild type/DeltatarO growth, OD600, 18 h, hits give low values, screened at 18.75 µg/mL (by protocol)
The campaign covered roughly 52,000 compounds. About 4,300 (8.3%) were called active. Shown is part of a subset that was picked to be rich in actives.
# Lookup of reported survival keyed by entry
metric_name: survival (%)

1. COc1cccc(Nc2nc3ccc(C)cc3nc2-n2nc(C)cc2C)c1	88
2. Cc1cc(C)n(-c2nc3ccccc3nc2Nc2ccc(N(C)C)cc2)n1	-2
3. Cc1ccc(NC(=O)CSc2nnc(COc3ccc(Cl)cc3)o2)cc1	49
4. CCc1ccc(OCC(=O)NC(Cc2c[nH]c3ccccc23)C(=O)O)cc1 (stereo not drawn)	40
5. COc1ccc(NC(=S)N(Cc2ccco2)Cc2cc3cc(C)c(C)cc3[nH]c2=O)cc1	38
6. Cc1ccc(C(C)C)c(OCC(=O)NCC2(N(C)C)CCCCC2)c1	95
7. Cc1ccc(NC(=O)C2CCCN(c3ncnc4onc(C)c34)C2)c(Cl)c1 (stereo not drawn)	74
8. CCN(CC)C(=O)Cn1c(=O)n(Cc2ccc(C(=O)NCc3ccccc3Cl)cc2)c(=O)c2ccccc21	115
9. Cc1ccc(-c2nc(C)c(CCNC(=O)c3ccccc3Br)s2)cc1	72
10. Cc1cc(C)n(-c2nc3ccccc3nc2Nc2ccc(C(C)C)cc2)n1	8
11. Cc1cccc(OCC(=O)NC(Cc2c[nH]c3ccccc23)C(=O)O)c1C (stereo not drawn)	48
12. Cc1cc(C)cc(-n2ccnc(NCCc3ccccc3)c2=O)c1	101
13. CCc1nc2ccc(C(=O)NCCc3ccc(OC)cc3OC)cc2nc1CC	68
14. COc1ccc2[nH]c(=O)c(CN(Cc3ccco3)C(=S)NCc3ccco3)cc2c1	65
15. CN(C)CCCNc1cn[nH]c(=O)c1Cl	93
16. CCc1ccccc1NC(=O)CSc1nnc(COc2ccccc2Cl)o1	66
17. Cc1oc2ncn(CC(C)C)c(=O)c2c1C(=O)NCCCN1CCCCC1	101
18. COc1cccc(CNC(=O)CCc2c(C)nc3c(c(C)nn3-c3ccc(C)c(C)c3)c2C)c1	67

These data points were gathered from PubChem BioAssay AID463173.
